assay: PSAC antagonists in infected red cells, primary screen, cell-based, P. falciparum Indochina, OD700, 1 h (AID 1154); details: P. falciparum Indochina infected RBC osmotic lysis, higher = more signal, called active from +8 up or from −8 down
Active and inactive are the calls of the source.
EXPERIMENTAL_ENDPOINT: z-score

CC(C)=NO[C@H](C)c1cn([C@H](CO)Cc2ccccc2)nn1 : 0.29 (inactive)
CC[C@@H](c1ccccc1)n1c(=O)n2n(c1=O)[C@H]1[C@H](O)[C@@H]3O[C@@H]3C(=O)[C@H]1CC2 : -0.48 (inactive)
C=COC[C@@H]1CN2[C@@H](CC[C@@H](C)[C@@H]2c2ccc(Br)cc2)C(=O)O1 : 2.08 (inactive)
CO[C@H]1COC(=O)CCC[C@@H](C)[C@H](OC)COC(=O)[C@@H](C)NC(=O)CC=C[C@@H]1C : -0.806 (inactive)
O=C1[C@H]2[C@H]3[C@H](O)[C@H](O)CC(=NOCc4ccccc4)[C@@H]3CC[C@H]2C(=O)N1Cc1ccc2c(c1)OCO2 : 6.28 (inactive)

compound COCCNC(=O)OCC1CCCC2(CC(OC(=O)NCc3ccc4c(c3)OCO4)CC(CCC(=O)N[C@@H](C)C(=O)OC)O2)O1 (stereo partly drawn) , z-score observed: -1.19 (inactive)

compound CC(CCN1CCc2nc(-c3ccccc3)c(-c3ccccc3)cc2C1)=NOC[C@@H](O)[C@H]1O[C@@H]2OC(C)(C)O[C@@H]2[C@H]1O , z-score observed: 1.47 (inactive)

compound CC(CCC(=O)OC[C@H]1O[C@H](C#Cc2ccccc2)C=C[C@@H]1Oc1ccc(C)cc1)=NO[C@H](C)c1cn([C@H](CO)Cc2ccccc2)nn1 , z-score observed: 14.6 (active)
